What TGI was measured for each of the following?
Tested on: HL-60(TB) leukemia
method notes: NCI tumour cell line growth inhibition, 48 h
Numbers only, in µM.

Consider the following illustrative entries.
{"columns": ["compound", "TGI / µM"],
 "data": [
  ["O=c1cc(N/N=C/c2ccc(F)cc2)c2cc(Cl)ccc2[nH]1", 50.9],
  ["O=C1CC(c2[nH]nc3ccccc23)C(=O)N1c1ccccc1 (stereo not drawn)", 70.4]
]}

Attention now turns to another entry.
Task: Could you share which TGI value was measured for COc1ccc(Nc2ccc3ccccc3c2-c2c(O)ccc3ccccc23)cc1 ?
Result: 55.2

###

System: A549 NSCLC
method notes: NCI tumour cell line growth inhibition, 48 h
quantity: TGI

Worked examples, 3 molecules total:
{"columns": ["molecule", "TGI"],
 "data": [
  ["CCCC(=O)N[C@H]1C2C3CC4C5CC(C42)C1(C)C53 (stereo partly specified)", "> 100 µM"],
  ["COc1cc2c(cc1O)CC1c3c(cc(O)c(OC)c3-2)CCN1C (stereo unspecified)", "> 100 µM"],
  ["CCN(c1cc(-c2ccc(CN3CCOCC3)cc2)cc(C(=O)NCc2c(C)cc(C)[nH]c2=O)c1C)C1CCOCC1", "> 100 µM"]
]}

Would you mind listing TGI for each of the following molecules?
1. C[C@]12CC[C@H](O)CC1=CC[C@@H]1C2CC[C@]2(C)Nc3c(cnn3-c3ccccc3)CC12 (stereo partly specified)
2. C1CC[N-]CC1.CC(=N\O)/C(C)=N/O.CC(=N\O)/C(C)=N/O.OC1[CH-]CCCC1.[Co+2]
3. CC(C)/C(Cl)=N\OC(NC(=O)P(=O)(c1ccccc1)c1ccccc1)(C(F)(F)F)C(F)(F)F
4. CN(C)CCCNc1ccc2nnn3c4ccc(O)cc4c(=O)c1c23
5. COc1ccc(C(=O)CC(c2ccccc2)[C@H]2C(c3ccc(OC)cc3)=Nc3c(nc(SC)n(C)c3=O)NC2c2ccccc2)cc1 (stereo partly specified)
6. O=C1NC(=O)C(C(CC(=O)c2ccc(Cl)cc2)c2ccc(Cl)cc2)C(=O)N1 (stereo unspecified)
7. Cc1c(C(=O)OCc2ccccc2)[n+](=O)c2cc(Cl)c(Cl)cc2n1[O-]

Result:
37 µM
> 100 µM
42.8 µM
16.9 µM
> 100 µM
> 100 µM
28 µM

###

Test system: NCI-H460 lung
method notes: NCI tumour cell line growth inhibition, 48 h
Answer each item with its documented TGI.

For orientation, consider the following solved cases.
{"columns": ["molecule", "target or test system", "TGI"],
 "data": [
  ["CC(C)C(C/C=C1\\CC(CO)(COC(=O)C2CCCCC2)OC1=O)C(C)C (centres undefined)", "NCI-H460 lung", "76 µM"],
  ["COc1ccc(OC)c(SC(CC(=O)c2ccccc2)c2ccccc2)c1 (centres undefined)", "NCI-H460 lung", "> 100 µM"],
  ["Cc1cc(N=C2C=C(Br)C(=O)C(Br)=C2)cc(CN(CC(=O)O)CC(=O)O)c1O", "NCI-H460 lung", "> 100 µM"]
]}

Take each entry in turn and give its TGI.
1. CCN(c1cc(-c2ccc(CN3CCOCC3)cc2)cc(C(=O)NCc2c(C)cc(C)[nH]c2=O)c1C)C1CCOCC1
2. Cc1cc(O)c(C2=NN(c3ccc(S(N)(=O)=O)cc3)C(c3ccc(Cl)cc3)C2)c(C)c1Cl (centres undefined)
3. O=P1(S)OC[C@H]2O[C@@H]3[C@H](F)[C@@H]2OP(O)(=S)OC[C@H]2O[C@H]([C@H](F)[C@@H]2O1)n1cnc2c(ncnc21)NC/C=C/CNc1ncnc2c1ncn23 (some centres undefined)

Result:
["> 66.8 µM", "7.24 µM", "> 100 µM"]

Please report TGI for every entry that follows.
1. Cc1cccc(C)c1NC(=O)CCc1nc(=S)[nH][nH]1
2. Cc1cc(C)c2c(c1)C(=O)/C(=C/c1ccccc1C(=O)O)C2
3. NN=C(CC(O)(C(F)(F)Cl)C(F)(F)Cl)CC(O)(C(F)(F)Cl)C(F)(F)Cl

Result:
1. > 100 µM
2. > 100 µM
3. > 10 µM

###

Test system: NCI-H23 lung
method notes: NCI tumour cell line growth inhibition, 48 h
quantity: GI50

{"columns": ["compound", "GI50"],
 "data": [
  ["COc1ccc(C(O)c2cc3c(N)c(C(=O)Nc4cccc(Cl)c4)sc3nc2C)cc1 (stereo unspecified)", "1.82 µM"],
  ["Cc1nc(Nc2cccnc2)sc1C(=O)/C=C/c1ccc(Cl)cc1", "3.43 µM"]
]}

For each of the compounds below, note its GI50.
1. COc1cc(NC(=O)CCSc2nc3ccc(C)cc3c(=O)n2Cc2ccccc2)cc(OC)c1OC
2. CC(=O)[O-].[Mn+3].[O-]c1ccccc1C=NCCNCCN=Cc1ccccc1[O-]
3. Cc1cc(O)c(C2=NN(c3ccc(S(N)(=O)=O)cc3)C(c3ccc(Cl)cc3)C2)c(C)c1Cl (stereo unspecified)
4. CCN(c1cc(-c2ccc(CN3CCOCC3)cc2)cc(C(=O)NCc2c(C)cc(C)[nH]c2=O)c1C)C1CCOCC1
5. c1ccc(-c2nc(N3CCOCC3)c3c4c(sc3n2)CCCCCC4)nc1

Result:
1. 26.6 µM
2. > 100 µM
3. 5.82 µM
4. 59.4 µM
5. 5.99 µM

Provide each entry's GI50 from the list below.
1. O=C(Nc1ccc(-c2nc(-c3cccc(OCCN4CCOCC4)c3)c(-c3ccnc(Br)c3)[nH]2)cc1)c1ccccc1
2. CCCCCC[C@H](C)Nc1nc2ccccc2c2occc12
3. CC(C)(C)OC(=O)NCCCn1c2c(c3ccccc3c1=O)C(=O)c1ccccc1-2
4. CSCCCNC(=O)c1ccc2c(c1)/C(=C/c1[nH]c(C)cc1C)C(=O)N2
5. C=C1CCC2(C#N)[C@H]3[C@H](CC[C@@H]2C)[C@@H](C)C[C@@H](CC(C)(C)NC(=O)CN2CCC2=O)[C@H]13 (stereo partly specified)
6. OCc1ccc(-c2cscc2-c2ccc(CO)o2)o1
7. COc1ccc(C(=O)NNc2nc(Cl)nc(N3CCN(C(c4ccccc4)c4ccccc4)CC3)n2)cc1

Result:
2.47 µM
0.576 µM
13.4 µM
1.59 µM
10.4 µM
64.6 µM
1.88 µM

I'm hoping you can list GI50 for every compound here, please.
1. Cc1nnc2n1N=C(c1ccc(Cl)cc1Cl)/C(=C/c1ccc(-c3ccc([N+](=O)[O-])cc3Cl)o1)S2
2. Cc1cc2c([nH]c3ccccc32)c(O)c1-c1c(C)cc2c([nH]c3ccccc32)c1O

Result:
["12.5 µM", "12.4 µM"]

###

System: MALME-3M melanoma
method notes: NCI tumour cell line growth inhibition, 48 h
Kindly state GI50 for each of the entries shown.

{"columns": ["item smiles", "target or test system", "GI50"],
 "data": [
  ["S=c1nc(N/N=C/c2ccco2)c2cn[nH]c2[nH]1", "MALME-3M melanoma", "> 100 µM"],
  ["COc1ccc(C(=O)NNc2nc(Cl)nc(N3CCN(C(c4ccccc4)c4ccccc4)CC3)n2)cc1", "MALME-3M melanoma", "1.84 µM"]
]}

Can you give me GI50 for all of these, one by one?
1. COc1ccc(-c2nc(-c3nc4ccc(F)cc4[nH]3)c3ccccn23)cc1
2. NCCOCCOCCNc1nc(-c2ccc(Cl)cc2)nc(N2CCN(c3ccccn3)CC2)n1
3. Cc1nc(Nc2cccnc2)sc1C(=O)/C=C/c1ccc(Cl)cc1
4. Cc1nc2c(n1C)C(=O)c1ccccc1C2=O
5. COC(=O)COc1ccc(/C=C2/N=C(c3ccccc3)N(c3c(C)n(C)n(-c4ccccc4)c3=O)C2=O)cc1
6. CSCCCNC(=O)c1ccc2c(c1)/C(=C/c1[nH]c(C)cc1C)C(=O)N2
7. CN(C)c1nc2ccccc2c2c1c1c(n2Cc2ccccc2)-c2ccccc2C1=O
8. N.N.N.N.N.O=[N+]([O-])[O-].[Co+3].[O-][Cl+3]([O-])([O-])[O-]

Result:
["5.32 µM", "2.18 µM", "3.3 µM", "4.74 µM", "19.7 µM", "0.597 µM", "> 100 µM", "> 100 µM"]

###

I'd appreciate it if you could supply TGI values for the items below.
System: HOP-62 NSCLC
method notes: NCI tumour cell line growth inhibition, 48 h
Give bare numbers, in µM.

{"columns": ["compound", "unit symbol", "TGI"],
 "data": [
  ["CC(C)=CCNc1nc(Cl)nc2nc[nH]c12", "µM", 79.2],
  ["Nc1ccc(S(=O)(=O)Nc2nc3ccccc3nc2N2CCCCCC2)cc1", "µM", 52.6]
]}

Task: What does the record list as TGI for COc1cccc(N[C@@H]2c3cc4c(cc3C(c3cc(OC)c(O)c(OC)c3)[C@H]3C(=O)OCC32)OCO4)c1 (stereo not given in full) ?
Result: 0.671
